subject of test: 5-hydroxytryptamine receptor 2C (Homo sapiens, UniProt P28335)
Sequence (P28335 whole entry): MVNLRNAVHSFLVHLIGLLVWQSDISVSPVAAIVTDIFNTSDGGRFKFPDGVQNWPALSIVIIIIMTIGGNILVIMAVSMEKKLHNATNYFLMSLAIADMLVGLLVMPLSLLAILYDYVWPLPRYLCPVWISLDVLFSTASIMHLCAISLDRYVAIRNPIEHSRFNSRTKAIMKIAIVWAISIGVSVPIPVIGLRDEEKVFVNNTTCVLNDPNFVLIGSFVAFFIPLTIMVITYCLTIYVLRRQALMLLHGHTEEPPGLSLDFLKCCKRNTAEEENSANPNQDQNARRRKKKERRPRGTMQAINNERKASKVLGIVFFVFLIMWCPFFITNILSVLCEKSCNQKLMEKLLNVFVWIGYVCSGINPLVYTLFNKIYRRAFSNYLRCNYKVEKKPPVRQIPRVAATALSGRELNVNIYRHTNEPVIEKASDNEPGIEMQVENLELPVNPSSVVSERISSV
method description: Agonist activity at human recombinant 5-HT2C receptor expressed in Swiss mouse 3T3 cell membranes after 30 to 40 mins by GTPgammaS recruitment assay
attribute measured: EC50 (nM)
Quick reminder: number only, in nM, skip the unit.

The following compounds have reported results that may help.
>  <molecular string>
c1ccc(CNc2nc(Cc3ccccc3)cc3c2CCNCC3)cc1

>  <result value>
158

$$$$
>  <molecular string>
CC(C)CNc1nc(Cc2ccccc2)cc2c1CCNCC2

>  <result value>
36

$$$$

Exercise: Fill blank: measured EC50 of the compound CCNc1nc(Cc2ccccc2)cc2c1CCNCC2 is ____.
Solution: 11

Exercise: Entry CNc1nc(Cc2ccccc2)cc2c1CCNCC2 has what EC50?
Solution: 9

src = BindingDB's records for doi:10.1021/ml500507v
